study.system: T1, CD300c antigen (11832-H08H, Sino Biological) (human, UniProt Q08708 21-183)
T1 construct: Bought antigen; also called CD300c protein; CD300 antigen-like family member C
T1 sequence (looked up): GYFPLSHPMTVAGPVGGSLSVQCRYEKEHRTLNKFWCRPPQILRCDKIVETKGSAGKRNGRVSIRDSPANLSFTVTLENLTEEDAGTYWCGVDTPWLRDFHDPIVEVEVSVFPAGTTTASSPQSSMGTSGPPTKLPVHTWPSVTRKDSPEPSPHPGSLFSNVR
method.summary: binding ELISA, plate coated with CD300c antigen (8 µg/mL), HRP anti-Fc IgG detection
recorded.metric: EC50 (µg/mL)
The reply should contain only the number, in µg/mL.

As a guide, the following entries are already answered.
binder	EC50 (µg/mL)
CK2 (antibody, V domains shown, also called anti-CD300c monoclonal antibody CK2; CB301 antibody CK2) VH: EVQLLESGGGLVQPGGSLRLSCAASGFTFSSYGMHWVRQAPGKGLEWVSAISGSGTSIYYADSVKGRFTISRDNSKNTLYLQMNSLRAEDTAVYYCARGGTAFDYWGQGTLVTVSS VL: EIVLTQSPGTLSLSPGERATLSCRASQRSDNYLAWYQQKPGQAPRLLIYDASNRATGIPDRFSGSGSGTDFTLTISRLEPEDFAVYYCQQSYSTPFTFGQGTKVETK	0.033
CL4 (antibody, V domains shown, also called anti-CD300c monoclonal antibody CL4; CB301 antibody CL4) VH: RVQLLESGGGLVQPGGSLRLSCAASGFTFGSNYMSWVRQAPGKGLEWVSTISGSGTSTYYADSLKGRFTISRDNSKNTLYLQMNSLRAEDTAVYYCARGMWGMDVWGQGTLVTVSS VL: QSVLTQPPSASGTPGQRVTISCTGKHRHTVNWYQLLPGTAPKLLIYLDSERPSGVPDRFSGSKSGTSASLAISGLRSEDEADYYCQSYDSSSVVFGGGTKLTVL	0.031

Memo: CL9 (antibody, V domains shown, also called anti-CD300c monoclonal antibody CL9; CB301 antibody CL9) VH: EVQLLESGGGLVQPGGSLRLSCAASGFTFSSYYWSWVRQAPGKGLEWVSAISGSGGSTYYADSVKGRFTISRDNSKNTLYLQMNSLRAEDTAVYYCARIDVYGFDIWGQGTLVTVSS VL: QSVLTQPPSASGTPGQRVTISCSGSTSNIGTNYVYWYQQLPGTAPKLLIYDNNNRPSGVPDRFSGSKSGTSASLAISGLRSEDEADYYCQTWDSSTDVVFGGGTKLTVL , reported EC50: 0.094

Memo: SK14 (antibody, V domains shown, also called anti-CD300c monoclonal antibody SK14; CB301 antibody SK14) VH: EVQLLESGGGLVQPGGSLRLSCAASGFTFSNFAIAWVRQAPGKGLEWVSAISGRGTSTYYADSVKGRFTISRDNSKNTLYLQMNSLRAEDTAVYYCARGVSGFDSWGQGTLVTVSS VL: EIVLTQSPGTLSLSPGERATLSCRASQSISSHLAWYQQKPGQAPRLLIYDTSNRATGIPDRFSGSGSGTDFTLTISRLEPEDFAVYYCQQSYSTPFTFGQGTKVEIK , reported EC50: 0.065

Memo: SK15 (antibody, V domains shown, also called anti-CD300c monoclonal antibody SK15; CB301 antibody SK15) VH: RVQLLESGGGLVQPGGSLRLSCAASGFTFSSYAMHWVRQAPGKGLEWVSAINGSGGSTYYADSVKGRFTISRDNSKNTLYLQTNSLRAEDTAVYYCARGLQGFDYWGQGTLVTVSS VL: EIVLTQSPGTLSLSPGERATLSCQASQDITNYLNWYQQKPGQAPRLLIYDASSLETGIPDRFSGSGSGTDFTLTISRLEPEDFAVYYCQQSYSTPITFGQGTKVEIK , reported EC50: 14.7

Memo: SL18 (antibody, V domains shown, also called anti-CD300c monoclonal antibody SL18; CB301 antibody SL18) VH: RVQLLESGGGLVQPGGSLRLSCAASGFTFSDYHMHWVRQAPGKGLEWVSTISSSGGYTYYAESVKSRFTISRDNSKNTLYLQMNSLRAEDTAVYYCARSIRLPLDYWGQGTLVTVSS VL: QSVLTQPPSASGTPGQRVTISCSGNNIGSKGVHWYQQLPGTAPKLLIYEDSKRPSGVRDRFSGSKSGTSASLAISGLRSEDEADYYCQSYDSTKGVVFGGGTKLTVL , reported EC50: 0.17
